Test system: MOLT-4 leukemia
Test: NCI-60 one-dose screen, 48 h (100 = growth as untreated, 0 = no growth, -100 = all killed)
Settings: 10 µM unless noted
Compounds without any hit were thinned out: in the full panel of roughly 83,000, 20% have a hit.
endpoint: growth (%)

smiles_representation=Cc1c2cnccc2c(C)c2c1c1cc(C#N)ccc1n2C endpoint=growth assay_value=-11.2
smiles_representation=C=C(C)[C@@H]1CC[C@]2(CO)CC[C@]3(C)[C@H](CC[C@@H]4[C@@]5(C)CC[C@H](NCO)C(C)(C)[C@@H]5CC[C@]43C)[C@@H]12 endpoint=growth assay_value=-26.7
smiles_representation=COc1cc(NS(=O)(=O)c2ccc(-c3cnc(C4CC4)o3)cc2)ccc1F endpoint=growth assay_value=31.9
smiles_representation=C=C(C)[C@@H]1CCC[C@]2(COS(=O)(=O)c3ccc(C)cc3)CC[C@]3(C)[C@@H](CC[C@@H]4[C@@]5(C)CCCNC(C)(C)[C@@H]5CC[C@]43C)[C@@H]12 endpoint=growth assay_value=-11.1
smiles_representation=COC(=O)CC[C@@H]1O[C@@H](c2cccc(C(F)(F)F)c2)[C@@H](O)[C@H]1O endpoint=growth assay_value=104
